system: A549/ATCC NSCLC; assay: NCI-60 one-dose screen, 48 h; settings: 10 µM unless noted
The panel holds about 83,000 compounds, 20% with a hit somewhere; the sample as a whole holds those more often. Active and inactive are the calls of the source. How the source made its calls: active means growth percent below 10; inactive means the rest.
// one of 1.0 (active), 0.0 (inactive), no free text

MOLECULE	MEASURED_TARGET	CLASS_ASSIGNMENT
CN1CCOCCN(C)Cc2ccc3ccc(cc3c2)CN(C)CCOCCN(C)Cc2ccc3ccc(cc3c2)C1	A549/ATCC NSCLC	0.0
COCCn1cc(-c2nc(-c3cn(CCOC)c4ncccc34)cs2)c2cc(F)ccc21	A549/ATCC NSCLC	0.0
CCOC(=O)CC[C@H](NC(=O)c1ccc(N(C)Cc2cnc3nc(N)nc(N)c3n2)c2ccccc12)C(=O)OCC	A549/ATCC NSCLC	1.0
Cc1nc([P+](c2ccccc2)(c2ccccc2)c2ccccc2)c(N2CCCCC2)o1	A549/ATCC NSCLC	0.0
COC1C(O)CC(OC2CC(OC3CC(O[C@@H]4C(=O)c5c(cc6cc(OC7CC(OC8CC(O)C(O)C(C)O8)C(O)C(C)O7)c(C)c(O)c6c5O)CC4[C@H](OC)[C@@H](O)C(C)=O)OC(C)C3O)OC(C)C2O)OC1C (some centres undefined)	A549/ATCC NSCLC	1.0
COc1ccc(C(=O)/C=C/c2ccccc2)cc1S(N)(=O)=O	A549/ATCC NSCLC	0.0
CCN(CC)C(=O)C1=C(C)NC(=O)NC1c1ccc2c(c1)OCO2 (centres undefined)	A549/ATCC NSCLC	0.0
CN1CCN(Cc2ccc(NC(=O)c3cncc(C#Cc4cnc(N)cc4C#N)c3)cc2C(F)(F)F)CC1	A549/ATCC NSCLC	0.0

Please find the next molecule below.
# fetch the recorded call for CCOC(=O)C1=C(c2ccccc2)N=C2N(c3ccccc3)N=C(C(C)=O)N2C1c1ccc(F)cc1 (centres undefined) here
0.0

---

system: HOP-92 NSCLC; test: NCI-60 one-dose screen, 48 h (100 = growth as untreated, 0 = no growth, -100 = all killed); details: 10 µM unless noted
About 83,000 compounds went through this panel and 20% of them were active in at least one assay; those are over-represented in the sample as a whole.
class 1 if growth is below 50%. class 0 if not; exact matches included in class 0.

COMPOUND	MEASURED_TARGET	CLASS_ASSIGNMENT
OC1(c2ccccc2)c2ccccc2N(c2ccccc2)c2ccc(Cl)cc21 (stereo not given)	HOP-92 NSCLC	class 1
O=C(Nc1cccnc1Nc1ccc(Cl)cc1)c1cn(Cc2cccc(Oc3ccccc3)c2)nn1	HOP-92 NSCLC	class 0
O=C1C=C(SCCO)C(=O)c2ccccc21	HOP-92 NSCLC	class 0
CCN(CC)CCOc1ccc(Nc2ncc3cc(-c4c(Cl)cccc4Cl)c(=O)n(CCOC)c3n2)cc1	HOP-92 NSCLC	class 1
Cc1ccc2c(c1)nc(C)n2-c1ncnc2c1CC(C)c1cc(O)ccc1N2C (stereo not given)	HOP-92 NSCLC	class 1
CC(=O)c1ccc(-n2cc(CN3CCN(c4cc5c(cc4F)c(=O)c(C(=O)O)cn5C4CC4)CC3)nn2)cc1	HOP-92 NSCLC	class 0
Ic1ccc(Nc2nc3nonc3nc2Nc2ccc(I)cc2)cc1	HOP-92 NSCLC	class 1
C=CN(C(=O)N1CCN(c2cc3c(cc2F)c(=O)c(C(=O)O)cn3C2CC2)CC1)c1nc(-c2ccc(Cl)cc2)cs1	HOP-92 NSCLC	class 0

Quick check: growth of N#Cc1ccccc1-c1ccc(CN2C(=O)S/C(=C\c3ccc(Br)cc3)C2=O)cc1 under 50%?
class 0

Entry Cc1ccc2nc(-c3ccc(C(=O)N/N=C/c4ccc([N+](=O)[O-])cc4)cc3)[nH]c2c1 please
class 0
